Test system: HCT-116 colon
testDetails: NCI tumour cell line growth inhibition, 48 h
readoutType: TGI (µM)
Report only the number, with the unit µM understood.

{"compound": "OC(c1cccc(C(F)(F)F)c1)c1cnccc1NC1CCCCCC1 (centres undefined)", "TGI / µM": 3.18}

Let us move to another entry and its TGI.
Which TGI is reported for this compound? O=C1C(Br)=Cc2c(Cl)sc(Cl)c21
6.25

----------
Tested on: HOP-92 NSCLC
testDetails: NCI tumour cell line growth inhibition, 48 h
readoutType: TGI

Below, each entry is followed by its recorded TGI result.
{"structureAsSmiles": "O=C1N[C@@H]2c3c(csc3Br)C(=O)[C@@H]2O1", "systemName": "HOP-92 NSCLC", "TGI": "59.3 µM"}
{"structureAsSmiles": "O=C1c2ccccc2-c2c1c1cc3c(cc1c(=O)n2CCCCl)OCO3", "systemName": "HOP-92 NSCLC", "TGI": "> 100 µM"}
{"structureAsSmiles": "O=C(OCc1ccccc1)OOC(=O)OCc1ccccc1", "systemName": "HOP-92 NSCLC", "TGI": "> 100 µM"}
{"structureAsSmiles": "CC(C)c1c(P(=O)(c2ccccc2)c2ccccc2)n(C)c2ccccc12", "systemName": "HOP-92 NSCLC", "TGI": "> 100 µM"}
{"structureAsSmiles": "O=C(O)Cc1ccc2nc(COC(=O)c3ccccc3)sc2c1", "systemName": "HOP-92 NSCLC", "TGI": "> 100 µM"}

Kindly consider the entry below.
Value wanted: TGI (HOP-92 NSCLC) of entry CC1=C[C@@H]2Cc3occc3C(C)(C)[C@@H]2CC1
38.9 µM

----------
Test system: HOP-62 NSCLC
testDetails: NCI tumour cell line growth inhibition, 48 h
readoutType: TGI

// known answers, use as guide
{"compound": "OCCNCO", "systemName": "HOP-62 NSCLC", "result": "> 100 µM"}
{"compound": "CCOC(=O)C1C(=O)CC(O)(c2ccccc2)C(C(=O)OCC)C1c1ccc(OC)cc1 (configuration not stated)", "systemName": "HOP-62 NSCLC", "result": "> 100 µM"}
{"compound": "O=C1/C(=C/c2ccc(F)cc2)CNC/C1=C\\c1ccc(F)cc1", "systemName": "HOP-62 NSCLC", "result": "4.56 µM"}

Would you kindly share the measured TGI for NNC(=O)c1cnn(-c2ccnc3c(C(F)(F)F)cccc23)c1N ?
> 100 µM

Name the recorded TGI for O=C(O)CNC(=O)c1ccc([As](=O)(O)O)cc1 .
> 100 µM

Please report the recorded TGI for CO/N=C1/c2sccc2[C@H](NC(=O)CNC(=O)OC(C)(C)C)[C@@H]1O .
> 100 µM

----------
Test system: SN12C renal
testDetails: NCI tumour cell line growth inhibition, 48 h
readoutType: TGI

{"compound": "CCOc1ccc2nc(NC(=O)/C(CC(=O)CC(C3=C(O)c4ccccc4CC3=O)c3ccccc3)=N\\O)sc2c1 (stereo not drawn)", "TGI": "> 100 µM"}
{"compound": "COc1ccc(/C=C(/C(=O)O)c2cc(OC)c(OC)c(OC)c2)cc1", "TGI": "> 100 µM"}
{"compound": "CC(=O)CC(=O)c1cc2c(=O)oc(C)cc2oc1=O", "TGI": "> 37.5 µM"}
{"compound": "CN1CCN(C(=S)N(C)C(=O)c2ccc(Cl)cc2)CC1", "TGI": "> 100 µM"}
{"compound": "CCOC(=O)c1cnc2[nH]ccn2c1=O", "TGI": "> 10 µM"}
{"compound": "O=C1CCC(NC(=O)c2ccccc2)C(=O)N1 (stereo not drawn)", "TGI": "> 100 µM"}
{"compound": "CC1CC(C#N)=C2NCCCCN2C1=O (stereo not drawn)", "TGI": "> 100 µM"}
{"compound": "C(=Nc1ccc(-c2nc3ccccc3s2)cc1)c1ccco1", "TGI": "> 100 µM"}
{"compound": "O=C(Nc1ccccc1[N+](=O)[O-])c1ccccc1", "TGI": "> 100 µM"}
{"compound": "CN(C)S(=O)(=O)Nc1ccccn1", "TGI": "> 100 µM"}

Give its TGI value. Item: CCOC(=O)c1c(N)n(-c2ccccc2)c(=S)n(-c2ccccc2)c1=O
> 100 µM

Suppose we examine the compound c1ccc(N=c2snc(-c3ccccc3)s2)cc1 ; what TGI value has been reported?
> 100 µM

GET /values?readout=TGI&item= COC(=O)c1c(OC)cccc1C(=O)O
> 100 µM

All figures here come from PubChem BioAssay (NCI).
